Biological target: T1, GST-ABI5 (Arabidopsis thaliana, UniProt Q9SJN0 1-442)
T1 sequence: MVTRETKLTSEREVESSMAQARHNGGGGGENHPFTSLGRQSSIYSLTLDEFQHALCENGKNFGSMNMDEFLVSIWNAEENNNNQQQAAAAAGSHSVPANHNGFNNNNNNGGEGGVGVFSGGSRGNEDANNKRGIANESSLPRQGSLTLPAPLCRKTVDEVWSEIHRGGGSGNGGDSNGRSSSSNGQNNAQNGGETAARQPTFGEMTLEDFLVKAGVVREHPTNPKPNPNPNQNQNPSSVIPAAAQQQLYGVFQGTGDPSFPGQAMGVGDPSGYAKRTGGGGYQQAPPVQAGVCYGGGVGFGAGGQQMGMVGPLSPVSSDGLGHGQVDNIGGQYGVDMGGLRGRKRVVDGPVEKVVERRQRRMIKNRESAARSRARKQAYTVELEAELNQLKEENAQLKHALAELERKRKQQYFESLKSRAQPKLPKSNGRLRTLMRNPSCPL
Experiment: EMSA
Measurement Type: binding result

Binder	Measurement Type	Value Reported
BBX30 promoter probe (dsDNA) DNA 1: GTCAATATTTTTCCACGTGTACAACCAGTTTA DNA 2: TAAACTGGTTGTACACGTGGAAAAATATTGAC	binding result	binds
BBX31 promoter probe (dsDNA) DNA 1: AAATAACAGGGCAAGATTCATCCACGTGTCCAACAACAACACAACACAAA DNA 2: TTTGTGTTGTGTTGTTGTTGGACACGTGGATGAATCTTGCCCTGTTATTT	binding result	binds
mutBBX30 probe (dsDNA) DNA 1: GTCAATATTTTTCCAAAAATACAACCAGTTTA DNA 2: TAAACTGGTTGTATTTTTGGAAAAATATTGAC	binding result	no binding
mutBBX31 probe (dsDNA) DNA 1: AAATAACAGGGCAAGATTCATCACCGGGTCCAACAACAACACAACACAAA DNA 2: TTTGTGTTGTGTTGTTGTTGGACCCGGTGATGAATCTTGCCCTGTTATTT	binding result	no binding

// data source = paper doi:10.1101/2022.06.21.497044
